# System: HCT-116
# Assay overview: cells
# Condition notes: Homo sapiens, HCT-116, 72 h
# Description: Antiproliferative activity against human HCT116 cells assessed as cell viability after 72 hrs by MTT assay
Value kind: IC50 (µM)

>  <Smiles repr>
COc1cc([C@@H]2c3cc4c(cc3[C@@H](Nc3cccc(NC(=O)CCCCCCC(=O)NO)c3)[C@H]3COC(=O)[C@H]23)OCO4)cc(OC)c1O

>  <Target under test>
HCT-116

>  <Reported>
8.57

$$$$
>  <Smiles repr>
COc1cc([C@@H]2c3cc4c(cc3[C@@H](Nc3ccc(OCCCC(=O)NO)cc3)[C@H]3COC(=O)[C@H]23)OCO4)cc(OC)c1O

>  <Target under test>
HCT-116

>  <Reported>
5.37

$$$$
>  <Smiles repr>
COc1cc([C@@H]2c3cc4c(cc3[C@@H](Nc3ccc(NC(=O)CCCCCC(=O)NO)cc3)[C@H]3COC(=O)[C@H]23)OCO4)cc(OC)c1O

>  <Target under test>
HCT-116

>  <Reported>
2.94

$$$$
>  <Smiles repr>
COc1cc([C@@H]2c3cc4c(cc3[C@@H](Nc3ccc(NC(=O)CCCCCCC(=O)NO)cc3)[C@H]3COC(=O)[C@H]23)OCO4)cc(OC)c1O

>  <Target under test>
HCT-116

>  <Reported>
1.27

$$$$
>  <Smiles repr>
COc1cc([C@@H]2c3cc4c(cc3[C@@H](Nc3ccc(NC(=O)CCCCC(=O)NO)cc3)[C@H]3COC(=O)[C@H]23)OCO4)cc(OC)c1O

>  <Target under test>
HCT-116

>  <Reported>
3.76

$$$$

[I] COc1cc([C@@H]2c3cc4c(cc3[C@@H](Nc3cccc(OCCCCCCCC(=O)NO)c3)[C@H]3COC(=O)[C@H]23)OCO4)cc(OC)c1O
[II] COc1cc([C@@H]2c3cc4c(cc3[C@@H](Nc3cccc(OCCCCCCC(=O)NO)c3)[C@H]3COC(=O)[C@H]23)OCO4)cc(OC)c1O
Task: I'd appreciate it if you could identify which of I and II has the greater IC50. Answer with the label corresponding to your selection.
Output: I
(I: 5.19 µM, II: 3.33 µM)

[a] COc1cc([C@@H]2c3cc4c(cc3[C@@H](Nc3cccc(OCCCC(=O)NO)c3)[C@H]3COC(=O)[C@H]23)OCO4)cc(OC)c1O
[b] COc1cc([C@@H]2c3cc4c(cc3[C@@H](Nc3ccc(OCCCCCCC(=O)Nc5ccccc5N)cc3)[C@H]3COC(=O)[C@H]23)OCO4)cc(OC)c1O
Task: Which of these two has the smaller recorded IC50: a or b ? Please reply using the label of the selected record.
Output: b

* * *

# Target under test: Histone deacetylase 1 (Homo sapiens)
# Sequence (Q13547 whole entry): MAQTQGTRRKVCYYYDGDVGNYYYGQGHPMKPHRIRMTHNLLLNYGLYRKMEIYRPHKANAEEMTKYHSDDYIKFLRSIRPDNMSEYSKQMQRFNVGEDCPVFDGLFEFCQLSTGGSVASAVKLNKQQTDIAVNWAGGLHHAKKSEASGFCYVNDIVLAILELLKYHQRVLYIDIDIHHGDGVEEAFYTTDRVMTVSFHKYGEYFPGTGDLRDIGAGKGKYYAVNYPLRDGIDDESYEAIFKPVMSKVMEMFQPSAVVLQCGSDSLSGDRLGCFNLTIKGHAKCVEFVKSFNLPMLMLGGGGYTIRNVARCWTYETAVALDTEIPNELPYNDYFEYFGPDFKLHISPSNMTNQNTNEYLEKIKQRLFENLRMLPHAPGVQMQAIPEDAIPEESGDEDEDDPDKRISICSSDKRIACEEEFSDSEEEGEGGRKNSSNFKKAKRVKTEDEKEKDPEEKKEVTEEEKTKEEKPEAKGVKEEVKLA
# Assay overview: Inhibition of human recombinant HDAC1 expressed in baculovirus infected insect high5 cells using Ac-Lys-Tyr-Lys (epsilon-acetyl)-AMC as substrate after 3 to 24 hrs by fluorescence assay
pIC50: −log10 of the molar value.
Value kind: pIC50

>  <Smiles repr>
COc1cc([C@@H]2c3cc4c(cc3[C@@H](Nc3ccc(OCCCCC(=O)NO)cc3)[C@H]3COC(=O)[C@H]23)OCO4)cc(OC)c1O

>  <pIC50>
6.90

$$$$

[I] COc1cc([C@@H]2c3cc4c(cc3[C@@H](Nc3cccc(NC(=O)CCCCCC(=O)NO)c3)[C@H]3COC(=O)[C@H]23)OCO4)cc(OC)c1O
[II] COc1cc([C@@H]2c3cc4c(cc3[C@@H](Nc3ccccc3OCCCCCCC(=O)NO)[C@H]3COC(=O)[C@H]23)OCO4)cc(OC)c1O
Task: Higher pIC50: I or II ? Please indicate the selected item by its label.
Output: II

* * *

# Target under test: Protein deacetylase HDAC6 (Homo sapiens)
# Sequence (Q9UBN7 whole entry): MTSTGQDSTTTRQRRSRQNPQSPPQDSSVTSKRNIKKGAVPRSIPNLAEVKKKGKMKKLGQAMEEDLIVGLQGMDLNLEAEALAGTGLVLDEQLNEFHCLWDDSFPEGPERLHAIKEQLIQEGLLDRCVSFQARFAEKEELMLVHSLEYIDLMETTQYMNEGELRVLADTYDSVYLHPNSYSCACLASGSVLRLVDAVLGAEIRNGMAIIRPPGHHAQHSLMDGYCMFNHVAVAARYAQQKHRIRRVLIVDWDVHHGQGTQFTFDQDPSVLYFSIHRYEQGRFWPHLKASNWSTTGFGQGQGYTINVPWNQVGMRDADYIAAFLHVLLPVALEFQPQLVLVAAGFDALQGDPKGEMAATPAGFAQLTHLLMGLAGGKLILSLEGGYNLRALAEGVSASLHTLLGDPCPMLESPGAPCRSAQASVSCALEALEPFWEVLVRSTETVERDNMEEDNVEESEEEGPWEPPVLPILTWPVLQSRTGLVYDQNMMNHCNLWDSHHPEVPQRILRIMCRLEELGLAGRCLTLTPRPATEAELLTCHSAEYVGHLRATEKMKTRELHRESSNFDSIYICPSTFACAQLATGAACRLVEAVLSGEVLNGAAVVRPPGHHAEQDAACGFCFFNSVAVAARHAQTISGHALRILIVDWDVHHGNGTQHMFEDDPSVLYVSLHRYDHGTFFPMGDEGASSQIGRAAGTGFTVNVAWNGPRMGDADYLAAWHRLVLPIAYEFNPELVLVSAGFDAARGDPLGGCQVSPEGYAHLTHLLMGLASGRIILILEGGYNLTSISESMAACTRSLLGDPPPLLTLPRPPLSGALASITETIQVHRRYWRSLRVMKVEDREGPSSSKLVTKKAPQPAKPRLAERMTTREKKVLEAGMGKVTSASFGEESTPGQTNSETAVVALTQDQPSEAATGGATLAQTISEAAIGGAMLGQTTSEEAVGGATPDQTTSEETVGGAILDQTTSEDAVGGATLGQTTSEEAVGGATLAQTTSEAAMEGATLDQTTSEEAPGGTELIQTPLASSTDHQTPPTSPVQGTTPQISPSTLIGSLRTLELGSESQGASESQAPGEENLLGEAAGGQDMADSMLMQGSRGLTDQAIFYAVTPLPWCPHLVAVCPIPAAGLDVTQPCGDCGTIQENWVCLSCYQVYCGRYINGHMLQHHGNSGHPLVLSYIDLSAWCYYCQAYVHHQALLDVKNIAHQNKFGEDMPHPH
# Assay overview: Inhibition of human recombinant HDAC6 expressed in baculovirus infected insect high5 cells using Boc-Lys (epsilon-acetyl)-AM) as substrate after 3 to 24 hrs by fluorescence assay
Value kind: IC50 (nM)

Examples with their reported IC50 follow.
>  <Smiles repr>
COc1cc([C@@H]2c3cc4c(cc3[C@@H](Nc3ccc(OCCCCCC(=O)NO)cc3)[C@H]3COC(=O)[C@H]23)OCO4)cc(OC)c1O

>  <Reading unit>
nM

>  <IC50>
26

$$$$
>  <Smiles repr>
COc1cc([C@@H]2c3cc4c(cc3[C@@H](Nc3ccc(NC(=O)CCCCC(=O)NO)cc3)[C@H]3COC(=O)[C@H]23)OCO4)cc(OC)c1O

>  <Reading unit>
nM

>  <IC50>
1060

$$$$
>  <Smiles repr>
COc1cc([C@@H]2c3cc4c(cc3[C@@H](Nc3ccc(NC(=O)CCCCCCC(=O)NO)cc3)[C@H]3COC(=O)[C@H]23)OCO4)cc(OC)c1O

>  <Reading unit>
nM

>  <IC50>
90

$$$$
>  <Smiles repr>
COc1cc([C@@H]2c3cc4c(cc3[C@@H](Nc3cccc(NC(=O)CCCCCC(=O)NO)c3)[C@H]3COC(=O)[C@H]23)OCO4)cc(OC)c1O

>  <Reading unit>
nM

>  <IC50>
160

$$$$
>  <Smiles repr>
COc1cc([C@@H]2c3cc4c(cc3[C@@H](Nc3cccc(OCCCCCC(=O)NO)c3)[C@H]3COC(=O)[C@H]23)OCO4)cc(OC)c1O

>  <Reading unit>
nM

>  <IC50>
15

$$$$

[a] COc1cc([C@@H]2c3cc4c(cc3[C@@H](Nc3ccc(OCCCCC(=O)NO)cc3)[C@H]3COC(=O)[C@H]23)OCO4)cc(OC)c1O
[b] COc1cc([C@@H]2c3cc4c(cc3[C@@H](Nc3cccc(NC(=O)CCCCC(=O)NO)c3)[C@H]3COC(=O)[C@H]23)OCO4)cc(OC)c1O
Task: Consider entries a and b . Which has the numerically lower IC50? // return label of chosen record
Output: a
(a: 88 nM, b: 520 nM)

* * *

# Target under test: DNA topoisomerase 2-alpha (Homo sapiens)
# Assay overview: Inhibition of Topoisomerase 2 (unknown origin) assessed as impairment of pBR322 DNA decatenation at 100 uM after 30 mins by agarose gel electrophoresis
Activity calls are given as the source filed them. The calls are words filed in the database; no cut-off is given here.
Value kind: inhibition

Some compounds with known inhibition results, for comparison:
>  <Compound>
COc1cc([C@@H]2c3cc4c(cc3[C@@H](Nc3cccc(NC(=O)CCCCCCC(=O)NO)c3)[C@H]3COC(=O)[C@H]23)OCO4)cc(OC)c1O

>  <Reported>
Active

$$$$
>  <Compound>
Nc1ccccc1NC(=O)c1ccc(CNc2nccc(-c3cccnc3)n2)cc1

>  <Reported>
inactive

$$$$
>  <Compound>
COc1cc([C@@H]2c3cc4c(cc3[C@@H](Nc3ccc(OCCCCCCC(=O)NO)cc3)[C@H]3COC(=O)[C@H]23)OCO4)cc(OC)c1O

>  <Reported>
Active

$$$$
>  <Compound>
COc1cc([C@@H]2c3cc4c(cc3[C@@H](Nc3ccc(NC(=O)CCCCCCC(=O)NO)cc3)[C@H]3COC(=O)[C@H]23)OCO4)cc(OC)c1O

>  <Reported>
Active

$$$$

Task: Give recorded inhibition with DNA topoisomerase 2-alpha (Homo sapiens) for the following compound: "COc1cc([C@@H]2c3cc4c(cc3[C@@H](Nc3ccc(OCCCCCCC(=O)Nc5ccccc5N)cc3)[C@H]3COC(=O)[C@H]23)OCO4)cc(OC)c1O"
Output: Active

Task: Given the entry "O=C(CCCCCCC(=O)Nc1ccccc1)NO" , what inhibition was observed with DNA topoisomerase 2-alpha (Homo sapiens)?
Output: inactive

Task: Any idea what inhibition came out for COc1cc([C@@H]2c3cc4c(cc3[C@@H](O[C@@H]3O[C@@H]5CO[C@@H](C)O[C@H]5[C@H](O)[C@H]3O)[C@H]3COC(=O)[C@H]23)OCO4)cc(OC)c1O [ETOPOSIDE] on DNA topoisomerase 2-alpha (Homo sapiens)?
Output: Active

Task: Notebook entry, DNA topoisomerase 2-alpha (Homo sapiens) assay: inhibition of "COc1cc([C@@H]2c3cc4c(cc3[C@@H](Nc3ccccc3OCCCCCCC(=O)NO)[C@H]3COC(=O)[C@H]23)OCO4)cc(OC)c1O" = ?
Output: Active

Task: Value wanted: inhibition (DNA topoisomerase 2-alpha (Homo sapiens)) of entry "COc1cc([C@@H]2c3cc4c(cc3[C@@H](Nc3cccc(OCCCCCCC(=O)NO)c3)[C@H]3COC(=O)[C@H]23)OCO4)cc(OC)c1O"
Output: Active

* * *

# Test system: HCT-116
# Assay overview: cells
# Condition notes: Homo sapiens, HCT-116, 72 h
pIC50: −log10 of the molar value.
Value kind: pIC50

>  <Compound>
COc1cc([C@@H]2c3cc4c(cc3[C@@H](Nc3cccc(OCCCCC(=O)NO)c3)[C@H]3COC(=O)[C@H]23)OCO4)cc(OC)c1O

>  <Value kind>
pIC50

>  <Reported>
5.20

$$$$
>  <Compound>
COc1cc([C@@H]2c3cc4c(cc3[C@@H](Nc3ccc(OCCCCCC(=O)NO)cc3)[C@H]3COC(=O)[C@H]23)OCO4)cc(OC)c1O

>  <Value kind>
pIC50

>  <Reported>
5.31

$$$$
>  <Compound>
COc1cc([C@@H]2c3cc4c(cc3[C@@H](Nc3ccccc3OCCCCCCC(=O)NO)[C@H]3COC(=O)[C@H]23)OCO4)cc(OC)c1O

>  <Value kind>
pIC50

>  <Reported>
4.95

$$$$
>  <Compound>
COc1cc([C@@H]2c3cc4c(cc3[C@@H](Nc3cccc(OCCCCCCC(=O)Nc5ccccc5N)c3)[C@H]3COC(=O)[C@H]23)OCO4)cc(OC)c1O

>  <Value kind>
pIC50

>  <Reported>
6.04

$$$$
>  <Compound>
COc1cc([C@@H]2c3cc4c(cc3[C@@H](Nc3cccc(OCCCCCC(=O)NO)c3)[C@H]3COC(=O)[C@H]23)OCO4)cc(OC)c1O

>  <Value kind>
pIC50

>  <Reported>
5.24

$$$$
>  <Compound>
COc1cc([C@@H]2c3cc4c(cc3[C@@H](Nc3ccccc3OCCCCCCCC(=O)NO)[C@H]3COC(=O)[C@H]23)OCO4)cc(OC)c1O

>  <Value kind>
pIC50

>  <Reported>
4.95

$$$$
>  <Compound>
COc1cc([C@@H]2c3cc4c(cc3[C@@H](Nc3ccc(OCCCCCCCC(=O)NO)cc3)[C@H]3COC(=O)[C@H]23)OCO4)cc(OC)c1O

>  <Value kind>
pIC50

>  <Reported>
5.43

$$$$
>  <Compound>
Nc1ccccc1NC(=O)c1ccc(CNc2nccc(-c3cccnc3)n2)cc1

>  <Value kind>
pIC50

>  <Reported>
5.80

$$$$

[I] COc1cc([C@@H]2c3cc4c(cc3[C@@H](Nc3ccccc3OCCCCC(=O)NO)[C@H]3COC(=O)[C@H]23)OCO4)cc(OC)c1O
[II] COc1cc([C@@H]2c3cc4c(cc3[C@@H](O[C@@H]3O[C@@H]5CO[C@@H](C)O[C@H]5[C@H](O)[C@H]3O)[C@H]3COC(=O)[C@H]23)OCO4)cc(OC)c1O [ETOPOSIDE]
Task: Could you kindly indicate whether I or II has the higher pIC50 value? Indicate which entry you chose by stating its label.
Output: II
(II: 6.06, I: 4.78)

[a] COc1cc([C@@H]2c3cc4c(cc3[C@@H](Nc3cccc(NC(=O)CCCCC(=O)NO)c3)[C@H]3COC(=O)[C@H]23)OCO4)cc(OC)c1O
[b] COc1cc([C@@H]2c3cc4c(cc3[C@@H](Nc3ccccc3OCCCCCC(=O)NO)[C@H]3COC(=O)[C@H]23)OCO4)cc(OC)c1O
Task: For the pair a and b , which member has the lower pIC50 number? Please respond with the label that marks your chosen entry.
Output: a
(a: 4.85, b: 5.09)
